Reference source for all entries: PubChem BioAssay (NCI)

Test system: RPMI-8226 leukemia
Assay details: NCI tumour cell line growth inhibition, 48 h
Listing of recorded GI50 by entry.

{"columns": ["Compound", "GI50"],
 "data": [
  ["O=C1NC(=NCCc2ccc(F)cc2)S/C1=C\\c1ccc2ncccc2c1", "> 25 µM"],
  ["CCOC(=O)[C@@H](C)C[C@H](Cc1ccccc1)NC(=O)c1csc([C@@H](C[C@H](C(C)C)N(C)C(=O)[C@@H](NC(=O)[C@H]2CCCCN2C)C(C)(C)CC)OC(C)=O)n1", "< 0.00167 µM"],
  ["Cc1cc(=O)oc2ccc(OC/C=C3\\CCC(=O)O3)cc12", "1.81 µM"],
  ["c1cc(N[C@@H]2CCNC2)nc(-c2cnc3ccc(-c4cn[nH]c4)cn23)c1", "11 µM"],
  ["COc1ccc2c(c1)OC(N)=C(C#N)C2c1cc(OC)c(OC)c(OC)c1 (stereo unspecified)", "0.0389 µM"],
  ["O=C1Nc2ccc(Br)cc2C12CC(c1ccccc1)=NN2 (stereo unspecified)", "3.07 µM"],
  ["COc1ccc2nc3cc(Cl)ccc3c(NCCCNCCO)c2c1", "0.497 µM"],
  ["COc1cc([N+](=O)[O-])c(OC)cc1-c1nc2sc(C)c(C)n2c1/C(N)=N/C(=N)N", "59.3 µM"],
  ["O=S1(=O)N2CN3CN(C2)CN1C3", "33.7 µM"],
  ["c1ccc(-c2oc(-c3ccccc3)c(CN3CCCCC3)c2CN2CCCCC2)cc1", "1.66 µM"],
  ["O=C1NC(=S)S/C1=C\\c1cn(-c2ccccc2)nc1-c1ccccc1", "2.52 µM"],
  ["NC1NC=NC2C1N=CN2C1OC(CO)C2[O][Sn][O]C21 (stereo unspecified)", "> 100 µM"],
  ["NC(N)=N/N=C/c1c(-c2ccsc2)nc2n1CCS2", "31.9 µM"],
  ["CCOC(=O)CSc1cc(Cl)c(C)cc1S(=O)(=O)/N=C(/N=C/c1ccc([N+](=O)[O-])s1)NNC", "36.7 µM"],
  ["CC1CC2C3CCC4=CC(=O)C=CC4(C)C3(F)C(O)CC2(C)C1(O)C(=O)COP(=O)(O)O (stereo unspecified)", "16.6 µM"],
  ["COc1cccc(/C=C/C(=O)c2ccc3cc(OC)ccc3c2)c1", "10.8 µM"]
]}
